systemName: KDM4A N198G mutant (Homo sapiens, UniProt O75164, N198G)
Sequence (O75164 whole entry N198G): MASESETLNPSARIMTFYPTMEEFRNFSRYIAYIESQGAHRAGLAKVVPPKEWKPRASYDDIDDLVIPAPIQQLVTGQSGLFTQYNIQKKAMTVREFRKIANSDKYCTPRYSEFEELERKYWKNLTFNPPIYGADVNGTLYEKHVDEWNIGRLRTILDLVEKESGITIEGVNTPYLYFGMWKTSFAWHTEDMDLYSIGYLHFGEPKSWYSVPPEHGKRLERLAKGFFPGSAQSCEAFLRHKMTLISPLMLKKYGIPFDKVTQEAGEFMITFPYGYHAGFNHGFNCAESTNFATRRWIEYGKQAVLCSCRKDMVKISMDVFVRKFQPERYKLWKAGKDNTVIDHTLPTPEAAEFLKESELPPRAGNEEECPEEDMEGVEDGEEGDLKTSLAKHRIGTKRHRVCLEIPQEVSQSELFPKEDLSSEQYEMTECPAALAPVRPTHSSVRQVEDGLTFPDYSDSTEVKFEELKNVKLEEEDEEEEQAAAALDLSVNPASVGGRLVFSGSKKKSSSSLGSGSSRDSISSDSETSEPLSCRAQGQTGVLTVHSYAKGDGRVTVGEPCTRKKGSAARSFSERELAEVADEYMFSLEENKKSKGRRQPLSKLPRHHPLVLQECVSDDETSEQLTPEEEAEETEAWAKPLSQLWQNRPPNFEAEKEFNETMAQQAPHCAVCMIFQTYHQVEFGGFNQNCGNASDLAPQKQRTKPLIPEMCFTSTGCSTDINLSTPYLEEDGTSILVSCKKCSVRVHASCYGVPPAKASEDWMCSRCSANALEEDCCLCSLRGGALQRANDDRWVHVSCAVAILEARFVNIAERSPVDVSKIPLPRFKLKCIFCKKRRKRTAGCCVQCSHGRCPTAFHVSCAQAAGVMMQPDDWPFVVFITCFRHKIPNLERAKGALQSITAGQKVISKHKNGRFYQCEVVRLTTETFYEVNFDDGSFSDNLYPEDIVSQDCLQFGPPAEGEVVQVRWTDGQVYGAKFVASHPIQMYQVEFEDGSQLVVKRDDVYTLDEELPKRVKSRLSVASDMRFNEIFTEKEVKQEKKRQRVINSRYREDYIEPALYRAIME
measurementProtocol: MALDI demethylase assay, H3K9me3 substrate peptide, N198G mutant
appliedConditions: N198G mutant, MALDI demethylase assay
quantity: IC50 (µM)
Express the result in µM but write the number alone.

input: Record request: IC50 value, item CC(C)C[C@H](NC(=O)C(=O)O)C(=O)O [compound 7, leucine-NOG]
output: 288

Origin of values: paper PMC6570502
